experimentalSystem: UniProt:P04629
Sequence (P04629 33-796 limits assumed): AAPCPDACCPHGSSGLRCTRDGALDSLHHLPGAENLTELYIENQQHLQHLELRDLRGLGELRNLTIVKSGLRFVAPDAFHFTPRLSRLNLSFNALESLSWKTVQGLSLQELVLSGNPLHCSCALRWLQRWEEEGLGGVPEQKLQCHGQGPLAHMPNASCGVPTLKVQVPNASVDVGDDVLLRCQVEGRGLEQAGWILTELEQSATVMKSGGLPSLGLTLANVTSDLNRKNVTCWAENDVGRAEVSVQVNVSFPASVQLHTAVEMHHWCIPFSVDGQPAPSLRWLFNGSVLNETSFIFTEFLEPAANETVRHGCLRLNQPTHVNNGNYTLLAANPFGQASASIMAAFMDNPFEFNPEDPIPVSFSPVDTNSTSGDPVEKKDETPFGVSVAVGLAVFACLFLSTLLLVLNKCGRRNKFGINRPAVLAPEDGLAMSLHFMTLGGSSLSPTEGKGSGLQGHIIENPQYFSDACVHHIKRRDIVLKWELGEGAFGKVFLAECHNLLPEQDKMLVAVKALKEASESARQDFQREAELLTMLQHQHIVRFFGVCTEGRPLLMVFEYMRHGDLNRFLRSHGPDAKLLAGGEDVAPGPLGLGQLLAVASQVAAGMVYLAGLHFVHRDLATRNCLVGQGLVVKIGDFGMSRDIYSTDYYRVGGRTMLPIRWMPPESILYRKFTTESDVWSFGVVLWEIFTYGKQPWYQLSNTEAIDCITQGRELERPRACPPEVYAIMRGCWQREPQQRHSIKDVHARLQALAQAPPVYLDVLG
assayInfo: Inhibition of TrkA at 10 uM by HTRF assay relative to control
Entry class follows inhibition: band 1 (below 7%), band 2 (7% to below 9%), band 3 (9% or more)

>>> print(df.to_string())
                                   compound  experimentalsystem  qualitativelabel
0  O=C(NCc1ccncc1)c1cccc(Nc2cc(Nc3cccc(Br)c3)ncn2)c1      UniProt:P04629            band 2
1  Cc1cccc(CN2CCN(c3cc(N(C)c4cccc(C)c4)ncn3)CC2)c1      UniProt:P04629            band 1
2  COC[C@@H]1CCCN1C(=O)[C@@H]1CCCN1c1nccc(Nc2ccccc2)n1      UniProt:P04629            band 2

Sort COC[C@@H]1CCCN1C(=O)C1CCCN1c1cc(Nc2cccc(Br)c2)ncn1 (stereo not given in full) into one of the categories. band 2

Sort Cc1cccc(N(C)c2cc(N3CCN(CC(=O)Nc4nc(-c5ccccc5)cs4)CC3)ncn2)c1 into one of the categories. band 2

Sort O=C(c1nc(SCc2ccc(Cl)cc2)n2ccccc12)N1CCN(c2cc(Nc3cccc(Br)c3)ncn2)CC1 into one of the categories. band 1

Sort Cc1cccc(Oc2ccnc(N3CCN(CC(=O)Nc4cccc5c4CCCC5)CC3)n2)c1 into one of the categories. band 3

* * *

assayInfo: Inhibition of AMPKalpha at 10 uM by HTRF assay relative to control
Documented inhibition across a set of molecules
Give your result in % as a bare value.

Some solved cases for reference:
>>> print(df.to_string())
                                   molecule  unitstring  readoutnumber
0  CN(C)CC(C)(C)CNC(=O)[C@@H]1CCCN1c1nccc(Nc2ccccc2)n1           %             10
1  O=C(NC1Cc2ccccc2C1)c1cccc(Nc2ccnc(N3CCN(c4ccccc4)CC3)n2)c1           %              9
2  COc1cccc(Nc2cc(N3CCC[C@H]3C(=O)NCCc3ccc(O)cc3)nc(N)n2)c1           %              9
3  Nc1nc(Nc2ccc(C(=O)NCCc3ccncc3)cc2)cc(N2CCOCC2)n1           %              0
4  Cc1cccc(N(C)c2cc(Nc3cccc(C(=O)NCCCn4ccnc4)c3)ncn2)c1           %              5
5  O=C(NC[C@@H]1CCCO1)c1cccc(Nc2nccc(Nc3ccc4ncsc4c3)n2)c1           %             36

So what's the measured inhibition for this one? Cc1cccc(N(C)c2cc(N3CCN(C(=O)Cc4c[nH]c5ccccc45)CC3)ncn2)c1 3

So what's the measured inhibition for this one? CN(C)CC(C)(C)CNC(=O)C1CCN(c2cc(N3CCOCC3)nc(N)n2)CC1 11

So what's the measured inhibition for this one? Cc1cccc(N(C)c2cc(Nc3cccc(C(=O)N(C)CCc4ccccn4)c3)ncn2)c1 0

So what's the measured inhibition for this one? O=C(CN1CCN(c2ncnc3c2CN(Cc2ccccc2)CC3)CC1)Nc1cc(F)ccc1F 0

So what's the measured inhibition for this one? Clc1ccc2sc(CN3CCN(c4ncnc5c4CN(Cc4ccccc4)CC5)CC3)cc2c1 16

So what's the measured inhibition for this one? Cc1cccc(CN2CCN(c3cc(N(C)c4cccc(C)c4)ncn3)CC2)c1 4

So what's the measured inhibition for this one? Nc1nc(N2CCOCC2)cc(N2CCC(C(=O)NCc3cccs3)CC2)n1 5

So what's the measured inhibition for this one? O=C(COc1ccccc1)N1CCN(c2nccc(Nc3ccc4ncsc4c3)n2)CC1 49

So what's the measured inhibition for this one? Cc1cccc(N(C)c2cc(Nc3ccc(CC(=O)Nc4ccc5ncsc5c4)cc3)ncn2)c1 0

So what's the measured inhibition for this one? Cc1cccc(Nc2nccc(Nc3cccc(C(=O)NCc4ccc(N(C)C)cc4)c3)n2)c1 8

So what's the measured inhibition for this one? Cc1cccc(Oc2ccnc(N3CCC[C@H]3C(=O)NCCCn3ccnc3)n2)c1 9
